Listing: Population Apoptotic (%) of selected compounds
System: U2OS
Assay: Multiplex assay against U2OS
Assay type: toxicity, cell-based
Details: human, 12 h, 10 µM, compound concentration 10 uM, replicate 2
Experimental readout: Population Apoptotic (%)

INSERT INTO assay_data (compound, value_observed) VALUES
  ('CCc1nn(CCCN2CCN(c3cccc(Cl)c3)CC2)c(=O)n1CCOc1ccccc1.Cl [NEFAZODONE HYDROCHLORIDE]', 69),
  ('CN1CCN(Cc2ccc(Nc3ncc(Cl)c(Nc4ccccc4S(=O)(=O)N(C)C)n3)cc2)CC1', 73),
  ('CC(C)CC(=O)Nc1[nH]nc2c1CN(C(=O)C1CCN(C)CC1)C2(C)C', 50),
  ('CCCSc1nc(N[C@@H]2C[C@H]2c2ccc(F)c(F)c2)c2nnn([C@@H]3C[C@H](OCCO)[C@@H](O)[C@H]3O)c2n1', 75);
